Data credit: patent US20250129103A1

protocol summary: Determination of logD (1-octanol / phosphate buffer pH 7.4)
Assay type: physicochemical
assay setup: 1-octanol/phosphate buffer, pH 7.4, pH 7.4, 1-octanol/phosphate buffer; read-out: Log D, pH 7.4
measured quantity: logD
Answers are plain numbers.

{"columns": ["compound smiles", "measured quantity", "result value"],
 "data": [
  ["CC(F)(F)c1noc(/C=C/C(=O)N2CCN(c3nc(OC[C@@]45CCCN4C[C@H](F)C5)nc4c(F)c(-c5cccc6cccc(Cl)c56)ncc34)C[C@@H]2CC#N)n1", "logD", 4.49],
  ["CC1(c2noc(/C=C/C(=O)N3CCN(c4nc(OC[C@@]56CCCN5C[C@H](F)C6)nc5c(F)c(-c6cccc7cccc(Cl)c67)ncc45)C[C@@H]3CC#N)n2)CC1", "logD", 4.59],
  ["CC(C)c1noc(/C=C/C(=O)N2CCN(c3nc(OC[C@]45CCCN4C[C@H](F)C5)nc4c3CCN(c3cccc5ccc(F)c(Cl)c35)C4)C[C@@H]2CC#N)n1", "logD", 4.96]
]}

Moving on to the next compound.
// query Field request: logD | item: "CO[C@H]1CCN(C/C=C/C(=O)N2CCN(c3nc(OC[C@@]45CCCN4C[C@H](F)C5)nc4c(F)c(-c5cccc(Cl)c5C(F)(F)F)ncc34)C[C@@H]2CC#N)C1"
// result 2.79

* * *

Would you kindly list pIC50 for each of these molecules?
measured on: KRAS G12C (GMPPNP-loaded) and cRAF (Ras-binding domain) interaction (Homo sapiens (Human), UniProt P01116, C118S/C51S/C80L/G12C)
Sequence (P01116 other isoform, or with tags, fused parts or gaps G12C/C51S/C80L/C118S): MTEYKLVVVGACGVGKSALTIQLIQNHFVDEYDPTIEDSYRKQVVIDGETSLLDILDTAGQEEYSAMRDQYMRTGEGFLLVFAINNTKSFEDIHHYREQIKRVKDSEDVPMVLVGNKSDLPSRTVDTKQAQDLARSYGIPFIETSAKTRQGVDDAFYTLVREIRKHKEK
protocol summary: Inhibition of KRAS G12C and cRAF binding (AlphaScreen)
assay setup: KRAS G12C loaded with GMPPNP, cRaf RBD, 2 hours preincubation; read-out: Raf-1 RBD K-Ras IC50
pIC50: −log10 of the molar value.

Some molecules with known pIC50 results, for comparison:
{"columns": ["molecule", "result value"],
 "data": [
  ["Cc1cc(N)nc(C2Cc3nc(OC[C@@]45CCCN4C[C@H](F)C5)nc(N4CCN(C(=O)/C=C/c5nc(C(C)C)no5)[C@@H](CC#N)C4)c3CC2C)c1C(F)(F)F (mixture of isomers) [Example 66]", "7.00 to 8.00"],
  ["Cc1nnc(/C=C/C(=O)N2CCN(c3nc(OCC45CCCN4CCC5)nc4c3CCN(c3cccc5cccc(Cl)c35)C4)C[C@@H]2CC#N)[nH]1 [Compound 29]", "< 6.30"]
]}

Please examine the following record next.
// query Requested field: pIC50. Item: Cn1cnc(/C=C/C(=O)N2CCN(c3nc(OC[C@@]45CCCN4C[C@H](F)C5)nc4c3CCN(c3cccc5cccc(Cl)c35)C4)C[C@@H]2CC#N)n1 [Compound 43]
// result < 6.30

* * *

Field: pIC50. Provide a value for each of the molecules that follow.
measured on: KRAS G12C (GMPPNP-loaded) and cRAF (Ras-binding domain) interaction (Homo sapiens (Human), UniProt P01116, C118S/C51S/C80L/G12C)
protocol summary: Inhibition of KRAS G12C and cRAF binding (AlphaScreen)
assay setup: KRAS G12C loaded with GMPPNP, cRaf RBD, 2 hours preincubation; read-out: Raf-1 RBD K-Ras IC50
pIC50: −log10 of the molar value.

{"columns": ["molecule", "pIC50"],
 "data": [
  ["N#CC[C@H]1CN(c2nc(OC[C@@]34CCCN3C[C@H](F)C4)nc3c(F)c(-c4cccc5cccc(Cl)c45)ncc23)CCN1C(=O)/C=C/CN1CC[C@@H](F)C1", "> 8.00"],
  ["N#CC[C@H]1CN(c2nc(OC[C@@]34CCCN3C[C@H](F)C4)nc3c(F)c(-c4cccc5cccc(Cl)c45)ncc23)CCN1C(=O)/C=C/CN1CCOC2CC21 (stereo partly shown)", "7.00 to 8.00"],
  ["C[C@H](F)c1noc(/C=C/C(=O)N2CCN(c3nc(OC[C@@]45CCCN4C[C@H](F)C5)nc4c(F)c(-c5cccc6cccc(Cl)c56)ncc34)C[C@@H]2CC#N)n1", "7.00 to 8.00"],
  ["N#CC[C@H]1CN(c2nc(OCC34CCCN3CCC4)nc3c2CCN(c2cccc4cccc(Cl)c24)C3)CCN1C(=O)/C=C/CN1CC2C(C1)C2(F)F (stereo partly shown)", "> 8.00"],
  ["N#CC[C@H]1CN(c2nc(OC[C@@]34CCCN3C[C@H](F)C4)nc3c(F)c(-c4ccccc4C(F)F)ncc23)CCN1C(=O)/C=C/CN1[C@@H]2CC[C@H]1COC2", "7.00 to 8.00"]
]}

# batch: return pIC50 for each of the 5 molecules below
1. N#CC[C@H]1CN(c2nc(OC[C@@]34CCCN3C[C@H](F)C4)nc3c(F)c(-c4cccc(Cl)c4C4CC4)ncc23)CCN1C(=O)/C=C/CN1C[C@H]2C[C@@H]1CO2
2. Cc1nccc(/C=C/C(=O)N2CCN(c3nc(OC[C@@]45CCCN4C[C@H](F)C5)nc4c(F)c(-c5cccc6c(C)c(F)ccc56)ncc34)C[C@@H]2CC#N)n1
3. Cc1nsc(/C=C/C(=O)N2CCN(c3nc(OCC45CCCN4CCC5)nc4c(F)c(-c5cccc6cccc(Cl)c56)ncc34)C[C@@H]2CC#N)n1
4. C[C@H]1CN(C/C=C/C(=O)N2CCN(c3nc(OC[C@@]45CCCN4C[C@H](F)C5)nc4c(F)c(-c5cccc6cccc(Cl)c56)ncc34)C[C@@H]2CC#N)C[C@H](C)O1
5. N#CC[C@H]1CN(c2nc(OC[C@@]34CCCN3C[C@H](F)C4)nc3c(F)c(-c4cccc(Cl)c4C(F)(F)F)ncc23)CCN1C(=O)/C=C/CN1C[C@@H]2C[C@H]1CO2

// result
> 8.00
< 6.30
> 8.00
> 8.00
> 8.00
